Target: Recombinant human JAK3 catalytic domain (amino acids 781-1124) (Homo sapiens, UniProt P52333)
Sequence (P52333 781-1124): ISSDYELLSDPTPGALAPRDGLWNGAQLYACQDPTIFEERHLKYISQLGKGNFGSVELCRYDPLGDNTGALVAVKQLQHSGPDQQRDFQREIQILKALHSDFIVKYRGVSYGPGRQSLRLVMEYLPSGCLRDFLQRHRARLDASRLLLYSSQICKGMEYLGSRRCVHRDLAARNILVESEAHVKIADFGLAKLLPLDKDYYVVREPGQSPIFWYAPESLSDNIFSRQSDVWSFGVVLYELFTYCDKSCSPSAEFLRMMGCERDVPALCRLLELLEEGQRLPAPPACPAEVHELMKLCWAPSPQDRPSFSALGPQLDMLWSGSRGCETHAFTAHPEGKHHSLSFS
Test: JAK3 inhibition assay
measured_attribute: log10 IC50 (log10 of the value in nM)
Would you kindly interpret these values as log10 of IC50 expressed in nM?

Completed entries (count: 3):
[[record]]
compound = "Cc1cc(C#N)ncc1N(c1cc(Nc2cc(N)ncn2)c2ncn(C)c2n1)C1CC1"
experimental_value = 2.28

[[record]]
compound = "Cc1cc(C#N)ncc1Oc1cc(Nc2ccc(N3CCNCC3)cn2)c2ncn(C)c2n1"
experimental_value = 2.61

[[record]]
compound = "Cc1cc(C#N)ncc1Oc1cc(Nc2ccc(S(=O)(=O)N3CCOCC3)cc2)c2ncn(C)c2n1"
experimental_value = 2.77


Switching to the query record.
Tell me the measured log10 IC50 of COCCNc1cc(Nc2cc(Oc3cnc(C#N)cc3C)nc3c2ncn3C)ncn1 , please.
3.02

Origin of the recorded values: patent US11564923B2
